The reported measurements were obtained from the supplement of paper PMC9233669.

Test system: biotinyl-Trp-oxazolone
Experiment: self-aminoacylation, catalytic enhancement (BWO) (fold over background); higher = more active; k-Seq, kA / k0A0; sequences stand for … in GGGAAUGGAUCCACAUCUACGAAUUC…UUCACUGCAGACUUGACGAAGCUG
Fewer inactive variants are shown than the library holds.
Attribute Measured: self-aminoacylation

// below: answered sequences
- Input Sequence: "ACACAUUUCAAGCAAUCGGUC [Fam1B.1 aminoacylation ribozyme variant]"
  Study System: "biotinyl-Trp-oxazolone"
  self-aminoacylation: 1.86
- Input Sequence: "AGUAUCCUGGUCAUCGAGUGA [Fam2.1 aminoacylation ribozyme variant]"
  Study System: "biotinyl-Trp-oxazolone"
  self-aminoacylation: 8.53

// switching to the query sequence
So what's the measured self-aminoacylation for this one? AUUACCCUGAUCAUGGAGUGA [Fam2.1 aminoacylation ribozyme variant]
13

###

Tested on: biotinyl-Leu-oxazolone
Assay: self-aminoacylation, catalytic enhancement (BLO) (fold over background); higher = more active; k-Seq, kA / k0A0; sequences stand for … in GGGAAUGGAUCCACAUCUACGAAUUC…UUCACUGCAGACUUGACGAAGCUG
This sample holds only a part of the variants without activity.
self-aminoacylation vs 6: at or above is Satisfied, below is Not satisfied.

A selection of reference data follows.
- Input Sequence: "CCACACUUCAUCCAAUCGGUC [Fam1B.1 aminoacylation ribozyme variant]"
  Class Label: "Not satisfied"
- Input Sequence: "CUACUUCAGCCAAUCGGUCUG [Fam1A.1 aminoacylation ribozyme variant]"
  Class Label: "Not satisfied"
- Input Sequence: "AUGCAUCUAGGUCAUCGGGUG [Fam2.2 aminoacylation ribozyme variant]"
  Class Label: "Satisfied"
- Input Sequence: "AAGUUUGCUAACAGUCACAAG [Fam3.1 aminoacylation ribozyme variant]"
  Class Label: "Not satisfied"
- Input Sequence: "AAUCCCCUGGUCAUCGAGUGA [Fam2.1 aminoacylation ribozyme variant]"
  Class Label: "Satisfied"

Reported self-aminoacylation at or above 6? AUUCACCUAGGUCUUUGGGUG [Fam2.2 aminoacylation ribozyme variant]
Satisfied

Answer whether self-aminoacylation of AUUACCCAGGUCAGCGAGUGA [Fam2.1 aminoacylation ribozyme variant] is greater than or equal to 6.
Not satisfied

Quick check, self-aminoacylation >= 6? AUAACCCUGGUCAUCGAGGGA [Fam2.1 aminoacylation ribozyme variant]
Not satisfied

// inclusive: self-aminoacylation at least 6? input: AUUACCCUGAUCAUCGCGUGA [Fam2.1 aminoacylation ribozyme variant]
Satisfied

###

Test system: biotinyl-Trp-oxazolone
Assay: self-aminoacylation, catalytic enhancement (BWO) (fold over background); higher = more active; k-Seq, kA / k0A0; sequences stand for … in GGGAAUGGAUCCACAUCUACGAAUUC…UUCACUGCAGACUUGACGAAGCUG
Variants at the floor of the assay were thinned out.
Each record here notes measured self-aminoacylation.
Please give only the number in your answer, with no unit.

Examples from the recorded data:
- Input Sequence: "CUACUUCAAUCAAACGGUCUG [Fam1A.1 aminoacylation ribozyme variant]"
  self-aminoacylation: 0.481
- Input Sequence: "CUUCACCUAGGUCAUCGUGUG [Fam2.2 aminoacylation ribozyme variant]"
  self-aminoacylation: 1.12

Data request, read-out self-aminoacylation, for AAGAUUACUAAUAGUCGCAAG [Fam3.1 aminoacylation ribozyme variant]
1.92

Requested read-out: self-aminoacylation. Entry: CCACACUUCAAGUGAUCGGUC [Fam1B.1 aminoacylation ribozyme variant]
1.24
